Molecular target: DAPK2 (Homo sapiens (Human))
Sequence (Q9UIK4 whole entry): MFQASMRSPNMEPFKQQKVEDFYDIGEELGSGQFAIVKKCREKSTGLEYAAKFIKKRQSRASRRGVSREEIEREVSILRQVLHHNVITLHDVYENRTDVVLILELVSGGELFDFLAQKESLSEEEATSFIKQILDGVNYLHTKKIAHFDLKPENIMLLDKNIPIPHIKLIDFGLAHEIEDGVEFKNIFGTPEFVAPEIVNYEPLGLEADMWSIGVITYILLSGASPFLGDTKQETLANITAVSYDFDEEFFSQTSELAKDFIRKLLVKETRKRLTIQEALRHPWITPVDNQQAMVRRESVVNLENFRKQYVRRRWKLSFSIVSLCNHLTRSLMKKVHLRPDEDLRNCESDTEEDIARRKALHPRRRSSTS
Test: KinaseProfiler off-target kinase profiling
Type: biochemical
Details: 10 μM, ATP near Km
Method: Representative compounds (Examples 12, 32, 26 and 2) of the invention were tested for off-target kinase activity at a concentration of 10 μM by Millipore, Inc. in their KinaseProfiler™ service against all the kinases available in their full kinase panel. Compounds were run in duplicate at a concentration of ATP near the Km for each individual kinase according to Millipore's specifications. […]
Exercise: state measured Avg. POC for each of the molecules provided.
Report the value in POC with no unit label.

### Prompt // lookup Avg. POC for Cc1c(-c2cnn(C)c2)nn(-c2ccccc2)c1NC(=O)NC1CCOc2cc(F)ccc21 (stereo not shown)
### Response 102.5

### Prompt Avg. POC lookup needed for Cc1c(-c2cnn(C)c2)nn(-c2ccccc2)c1NC(=O)N[C@H]1CCCc2ccccc21 , thanks.
### Response 123.5

### Prompt For the molecule shown here, COCc1ccc2c(c1)C(NC(=O)Nc1c(C)c(-c3cnn(C)c3)nn1-c1ccccc1)COC2 (stereo not shown) , give the reported Avg. POC.
### Response 103

### Prompt What measured Avg. POC goes with Cc1c(-c2ccc(=O)n(C)c2)nn(-c2ccccc2)c1NC(=O)NC1CN(CC(F)(F)F)Cc2ccccc21 (stereo not shown) ?
### Response 108.5

====

biological target: CK1delta (Homo sapiens (Human), UniProt P48730); experiment: KinaseProfiler off-target kinase profiling; type: biochemical; conditions: 10 μM, ATP near Km
Sequence (P48730 whole entry): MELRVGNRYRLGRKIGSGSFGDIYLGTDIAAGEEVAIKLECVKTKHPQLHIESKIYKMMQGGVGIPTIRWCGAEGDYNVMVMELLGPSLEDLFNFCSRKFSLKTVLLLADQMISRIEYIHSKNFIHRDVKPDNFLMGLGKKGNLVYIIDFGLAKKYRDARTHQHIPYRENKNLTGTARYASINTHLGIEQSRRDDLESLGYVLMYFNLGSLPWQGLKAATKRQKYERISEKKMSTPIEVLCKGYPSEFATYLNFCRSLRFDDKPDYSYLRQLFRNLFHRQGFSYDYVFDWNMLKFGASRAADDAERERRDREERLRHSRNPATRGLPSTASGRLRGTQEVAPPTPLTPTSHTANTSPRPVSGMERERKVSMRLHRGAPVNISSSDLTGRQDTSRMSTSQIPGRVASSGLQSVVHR
Assign Avg. POC to each entry below.
Field format: number, assumed POC, no unit text.

### Prompt For Cc1c(-c2cnn(C)c2)nn(-c2ccccc2)c1NC(=O)N[C@H]1CCCc2ccccc21 [Example 2] , what is its reported Avg. POC?
### Response 117.5

### Prompt Fill in the blank: the reported Avg. POC of COCc1ccc2c(c1)C(NC(=O)Nc1c(C)c(-c3cnn(C)c3)nn1-c1ccccc1)COC2 (stereo not shown) [Example 32] is ____.
### Response 135.5

### Prompt Entry Cc1c(-c2ccc(=O)n(C)c2)nn(-c2ccccc2)c1NC(=O)NC1CN(CC(F)(F)F)Cc2ccccc21 (stereo not shown) [Example 26] has what Avg. POC?
### Response 121.5

### Prompt Sample Cc1c(-c2cnn(C)c2)nn(-c2ccccc2)c1NC(=O)NC1CCOc2cc(F)ccc21 (stereo not shown) [Example 12] — what was its Avg. POC?
### Response 109.5

====

biological target: MST2 (Homo sapiens (Human)); experiment: KinaseProfiler off-target kinase profiling; format: biochemical; settings: 10 μM, ATP near Km
Sequence (Q13188 whole entry): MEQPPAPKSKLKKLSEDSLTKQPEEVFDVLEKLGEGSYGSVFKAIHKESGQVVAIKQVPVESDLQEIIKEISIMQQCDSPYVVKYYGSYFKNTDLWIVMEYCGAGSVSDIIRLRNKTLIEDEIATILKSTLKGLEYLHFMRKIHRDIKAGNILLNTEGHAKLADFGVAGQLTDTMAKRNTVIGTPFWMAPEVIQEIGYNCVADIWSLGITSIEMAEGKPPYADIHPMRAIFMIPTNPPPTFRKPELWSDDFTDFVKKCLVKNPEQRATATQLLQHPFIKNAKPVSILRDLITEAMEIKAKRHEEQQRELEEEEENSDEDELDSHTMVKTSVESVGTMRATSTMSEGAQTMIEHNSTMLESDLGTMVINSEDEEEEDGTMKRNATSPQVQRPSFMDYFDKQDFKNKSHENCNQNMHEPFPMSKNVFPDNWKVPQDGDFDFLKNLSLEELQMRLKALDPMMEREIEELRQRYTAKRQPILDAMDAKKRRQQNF
Measurement label: Avg. POC
I'd appreciate it if you wrote the number followed by its unit.

### Prompt Which Avg. POC is reported for this molecule? Cc1c(-c2ccc(=O)n(C)c2)nn(-c2ccccc2)c1NC(=O)NC1CN(CC(F)(F)F)Cc2ccccc21 (stereo not shown)
### Response 111 POC

### Prompt Looking for the measured Avg. POC of Cc1c(-c2cnn(C)c2)nn(-c2ccccc2)c1NC(=O)NC1CCOc2cc(F)ccc21 (stereo not shown) , can you help?
### Response 106.5 POC

### Prompt Please give the measured Avg. POC for this molecule: COCc1ccc2c(c1)C(NC(=O)Nc1c(C)c(-c3cnn(C)c3)nn1-c1ccccc1)COC2 (stereo not shown)
### Response 111.5 POC

### Prompt Give the measured Avg. POC of Cc1c(-c2cnn(C)c2)nn(-c2ccccc2)c1NC(=O)N[C@H]1CCCc2ccccc21 .
### Response 110.5 POC
